Data provenance: patent US8816055

Overview of recorded Ki for various binders
Target: pKal catalytic domain Mutant 4 (human, UniProt P03952 391-638)
Sequence (P03952 other isoform, or with tags, fused parts or gaps mutant): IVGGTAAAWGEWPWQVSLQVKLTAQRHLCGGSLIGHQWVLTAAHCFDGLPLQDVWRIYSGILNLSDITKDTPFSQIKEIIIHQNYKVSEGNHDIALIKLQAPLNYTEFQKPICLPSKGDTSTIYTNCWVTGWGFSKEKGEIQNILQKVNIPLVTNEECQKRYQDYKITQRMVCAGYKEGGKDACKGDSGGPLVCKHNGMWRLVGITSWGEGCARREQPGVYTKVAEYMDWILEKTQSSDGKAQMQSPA
Assay: Ki,app, enzyme inhibition
Write it as a number; the unit nM goes unstated.

Take a look at these entries with their results.
# binder, Ki / nM
rows = [
    ("M6-D09 (Fab, V domains shown, also called M06-D09; 559A-M06-D09) VH: EVQLLESGGGLVQPGGSLRLSCAASGFTFSFYYMVWVRQAPGKGLEWVSVIYPSGGITVYADSVKGRFTISRDNSKNTLYLQMNSLRAEDTAVYYCARDKWAVMPPYYYYAMDVWGQGTTVTVSS VL: DIQMTQSPSSLSASVGDRVTITCRASQSIRNYLNWYQQKPGKAPNLLIYAASTLQSGVPARFSGSGSGTDFTLTISSLQPEDFATYYCQQLSGYPHTFGQGTKLEIK", 2.9),
    ("X115-D01 (antibody, V domains shown, also called 559A-X115-D01; 559A-X0115-D01) VH: EVQLLESGGGLVQPGGSLRLSCAASGFTFSIYSMHWVRQAPGKGLEWVSSIYPSRGMTWYADSVKGRFTISRDNSKNTLYLQMNSLRAEDTAVYYCAYRRTGIPRRDAFDIWGQGTMVTVSS VL: DIQMTQSPSTLSASVGDRVTITCRASQSISSWLAWYQQKPGKAPKLLIYKASTLESGVPSRFSGSGSGTEFTLTISSLQPDDFATYYCQQYNTYWTFGQGTKVEIK", 0.12),
    ("X115-B07 (antibody, V domains shown, also called 559A-X115-B07; 559A-X0115-B07) VH: EVQLLESGGGLVQPGGSLRLSCAASGFTFSHYLMTWVRQAPGKGLEWVSYISPSGGHTIYADSVKGRFTISRDNSKNTLYLQMNSLRAEDTAVYYCAMVGQGIRGRSRTSYFAQWGQGTLVTVSS VL: EIVLTQSPGTLSLSPGERATLSCRTSQFVNSNYLAWYQQKPGQAPRLLIYGASSRATGIPDRFSGSGSGTDFTLTISRLEPEDFAVYYCQQSSRTPWTFGQGTKVEIK", 0.14),
    ("X101-A01 (antibody, V domains shown, also called 559A-X0101-A01) VH: EVQLLESGGGLVQPGGSLRLSCAASGFTFSHYLMTWVRQAPGKGLEWVSYISPSGGHTIYADSVKGRFTISRDNSKNTLYLQMNSLRAEDTAVYYCARVARGIAARSRTSYFDYWGQGTLVTVSS VL: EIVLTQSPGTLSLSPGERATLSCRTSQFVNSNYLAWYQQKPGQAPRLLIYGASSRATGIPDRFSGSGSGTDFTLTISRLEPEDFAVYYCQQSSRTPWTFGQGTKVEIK", 0.25),
]

Then this binder:
Q) What value of Ki has been recorded for this entry: M145-D11 (Fab, V domains shown, also called 559A-M145-D11 (sFab); 559A-M0145-D11) VH: EVQLLESGGGLVQPGGSLRLSCAASGFTFSHYRMSWVRQAPGKGLEWVSSIYPSGGRTVYADSVKGRFTISRDNSKNTLYLQMNSLRAEDTAVYYCAKDKFEWRLLFRGIGNDAFDIWGQGTMVTVSS VL: QSVLTQPPSVSVSPGQTASITCSGDKLGDKYTSWYQQRPGQSPVLVIYQDIKRPSGIPERFSGSNSGNTATLTISGTQAMDEADYYCQAWDSPNARVFGSGTKVTVL
A) 0.21
